Tested on: IL-6
assayDetails: IL-6 production in Con A/LPS stimulated splenocytes (ELISA)
Format: cell-based
reportedConditions: Splenocyte; splenocytes, Con A or LPS, 72 h, ELISA
Below: a set of entries, each annotated with reported IC50.

Guide cases for IC50, answers given:
> print(dat)
                                   molecule    result
1  COc1c(O)cc2c(c1O)[C@@H]1O[C@H](CO)[C@@H](O)[C@H](O)[C@H]1OC2=O [Compound 1, Bergenin, reference compound]  < 100 nM
2  CCN(CC)Cc1c(O)c(OC)c(O)c2c1C(=O)OC1C2OC(CO)C(O)C1O (stereo not drawn) [Compound 2]  < 100 nM

Note: attention shifts to another entry.
Request: Give IC50 for the following molecule: COc1c(O)c(CN2CCN(C)CC2)c2c(c1O)C1OC(CO)C(O)C(O)C1OC2=O (stereo not drawn) [Compound 3]
Response: < 100 nM
